Listing of recorded IC50 by entry.
target: SIK1 kinase (aa1-303, Thermo Fisher) (Homo sapiens, UniProt P57059); construct: SIK1 kinase (aa1-303, Thermo Fisher); purchased Thermo Fisher; experiment: Biochemical activities determination for SIK1 protein (TR-FRET); settings: 110 uM ATP, 0.5 μM STK1 substrate
Sequence (P57059 1-303): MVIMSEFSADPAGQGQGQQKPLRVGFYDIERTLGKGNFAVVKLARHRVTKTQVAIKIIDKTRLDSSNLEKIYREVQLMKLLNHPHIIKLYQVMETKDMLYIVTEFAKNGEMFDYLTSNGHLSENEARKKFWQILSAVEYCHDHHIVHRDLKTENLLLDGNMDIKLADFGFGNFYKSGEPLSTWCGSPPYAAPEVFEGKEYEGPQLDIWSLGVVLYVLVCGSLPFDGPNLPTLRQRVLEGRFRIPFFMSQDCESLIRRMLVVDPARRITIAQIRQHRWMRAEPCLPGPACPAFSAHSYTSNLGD
Report only the number, with the unit nM understood.

The recorded IC50 for entry "COc1cc(-c2coc3cc(OCCN4CCC4)ccc23)cc(OC(F)F)c1C(=O)N[C@@H]1C[C@@H]1F" equals 1740

* * *

Target: SIK2 kinase (full length, Thermo Fisher) (Homo sapiens, UniProt Q9H0K1)
Construct: SIK2 kinase (full length, Thermo Fisher); purchased Thermo Fisher
Sequence (Q9H0K1 whole entry): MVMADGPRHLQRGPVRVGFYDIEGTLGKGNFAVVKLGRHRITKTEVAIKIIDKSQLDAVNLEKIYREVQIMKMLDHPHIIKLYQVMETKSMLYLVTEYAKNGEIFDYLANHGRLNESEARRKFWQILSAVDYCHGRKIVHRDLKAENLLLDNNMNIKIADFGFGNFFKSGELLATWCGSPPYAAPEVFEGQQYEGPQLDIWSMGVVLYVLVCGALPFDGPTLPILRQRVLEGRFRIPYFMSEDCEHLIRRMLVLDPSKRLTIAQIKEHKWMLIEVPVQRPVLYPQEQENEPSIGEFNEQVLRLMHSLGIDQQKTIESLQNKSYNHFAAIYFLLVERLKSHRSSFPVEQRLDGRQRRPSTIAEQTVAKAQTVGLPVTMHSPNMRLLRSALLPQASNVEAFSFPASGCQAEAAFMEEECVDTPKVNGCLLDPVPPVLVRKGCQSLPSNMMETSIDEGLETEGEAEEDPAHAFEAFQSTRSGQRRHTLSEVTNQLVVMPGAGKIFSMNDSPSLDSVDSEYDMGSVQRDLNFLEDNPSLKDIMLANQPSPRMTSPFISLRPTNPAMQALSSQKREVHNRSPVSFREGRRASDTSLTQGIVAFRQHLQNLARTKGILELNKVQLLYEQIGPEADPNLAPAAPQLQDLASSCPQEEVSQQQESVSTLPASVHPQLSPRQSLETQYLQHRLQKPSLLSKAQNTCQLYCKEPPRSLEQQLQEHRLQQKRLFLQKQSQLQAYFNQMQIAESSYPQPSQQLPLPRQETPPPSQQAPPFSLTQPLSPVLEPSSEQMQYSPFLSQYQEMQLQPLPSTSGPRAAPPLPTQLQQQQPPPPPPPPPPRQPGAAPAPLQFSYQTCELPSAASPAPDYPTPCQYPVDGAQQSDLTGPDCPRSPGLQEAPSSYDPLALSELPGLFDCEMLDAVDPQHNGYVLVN
Experiment: Biochemical activities determination for SIK2 protein (TR-FRET)
Settings: 80 uM ATP, 0.5 μM substrate
Description: 2. Biochemical Activities Determination for SIK2 Protein Compounds were tested for inhibition of SIK2 kinase (full length, Thermo Fisher) in assays based on the time-resolved fluorescence-resonance energy transfer (TR-FRET) methodology. […] Plates were sealed and incubated at room temperature for overnight, and the TR-FRET signals (ratio of fluorescence emission at 665 nm over emission at 620 nm with excitation at 337 nm wavelength) were recorded on a PHERAstar FS plate reader (BMG Labtech). […]
Listing of recorded IC50 by entry.
Report only the number, with the unit nM understood.

The recorded IC50 for entry NC1CC(Oc2cc(-c3coc4cc(OCCN5CCCC5)ccc34)cc(OC(F)F)c2C(=O)NC2CC2)C1 (centres unmarked) equals 329

Next:
The recorded IC50 for entry COc1cc(-c2coc3cc(-c4cnn(C5CCN(C)C5)c4)ccc23)cc(OC(F)F)c1C(=O)N[C@@H]1C[C@@H]1F (some centres unmarked) equals 1.7

The recorded IC50 for entry "COc1cc(-c2coc3cc(OCCN4CCCCC4)ccc23)cc2c1C(=O)N(CC(F)(F)F)CC2" equals 73

The recorded IC50 for entry "COc1cc(-c2coc3cc(-c4cn(C)nc4Cl)ccc23)cc2c1C(=O)N(CC(F)(F)F)CC2" equals 223

The recorded IC50 for entry "CN1CC[C@@H](Oc2cc(-c3coc4cc(OCCN5CCCC5)ccc34)cc(OC(F)F)c2C(=O)NC2CC2)C1" equals 3850

The recorded IC50 for entry COc1cc(-c2coc3cc(-c4cnn(C)c4)ccc23)cc2c1C(=O)N(CC(F)(F)F)[C@@H](C)C2 [Compound 29A] equals 15

The recorded IC50 for entry "COc1cc(-c2coc3cc(OCCN4CCC[C@H]4C)ccc23)cc(OC(F)F)c1C(=O)N[C@@H]1C[C@@H]1F" equals 27

The recorded IC50 for entry "COc1cc(-c2coc3cc(-c4cnn(C)c4)ccc23)cc(OC)c1-c1nnc(C2CC2)o1" equals 132

The recorded IC50 for entry "COc1cc(-c2coc3cc(OCCN4CC[C@H](F)C4)ccc23)cc(OC(F)F)c1C(=O)N[C@@H]1C[C@@H]1F" equals 26

The recorded IC50 for entry "CN1CC(n2cc(-c3ccc4c(-c5cc6c(c(OC(F)F)c5)C(=O)N(CC(F)(F)F)CC6)coc4c3)cn2)C1" equals 5.2

The recorded IC50 for entry "O=C1c2c(cc(-c3coc4cc(OCCN5CCCC5)ccc34)cc2OC(F)F)CCN1CC(F)(F)F" equals 67

The recorded IC50 for entry "COc1cc(-c2coc3cc(-c4cnn(C5CCN(C)CC5)c4)ccc23)cc(OC(F)F)c1C(=O)N[C@@H]1C[C@@H]1F" equals 1.7

The recorded IC50 for entry "COc1cc(-c2coc3cc(-c4cnn(C)c4)ccc23)cc2c1C(=O)N(C1CC1)CC2" equals 34

The recorded IC50 for entry "COc1cc(-c2coc3cc(OCc4cncn4C)ccc23)cc2c1C(=O)N(CC(F)(F)F)CC2" equals 635

The recorded IC50 for entry "O=C1c2c(cc(-c3coc4cc(-c5cnn(C6CCNCC6)c5)ccc34)cc2OC(F)F)CCN1CC(F)(F)F" equals 8
